SUBJECT_OF_TEST: UCHL1, P09936
Sequence (P09936 whole entry, looked up, the tested form may be a part): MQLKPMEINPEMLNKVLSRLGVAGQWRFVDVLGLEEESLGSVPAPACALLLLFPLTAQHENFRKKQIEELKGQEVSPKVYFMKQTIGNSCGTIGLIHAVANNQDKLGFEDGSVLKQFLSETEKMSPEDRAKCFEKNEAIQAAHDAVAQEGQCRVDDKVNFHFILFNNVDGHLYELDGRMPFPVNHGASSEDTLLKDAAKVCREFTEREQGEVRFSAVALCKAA
TEST_SUMMARY: median log2 fold change of GCK-ALFA target abundance (FLAG IP / Myc IP barcode read proportion) (log2 ratio); each designed protein is fused to an ALFA-tag nanobody in HEK293 cells to bring the named protein to FLAG-tagged glucokinase (GCK); Myc marks an untargeted standard; higher = target protein stabilised (more abundant)
STATED_CONDITIONS: target protein: 3xFLAG-MCP-GCK-ALFA reporter; HEK293 landing pad (RPLP)
For each entry below, report its median log2 fold change value.
Lab note: jot down the number only; don't add units.

State the recorded median log2 fold change for this entry: uchl1_122_7430 (protein) TVTVEAVGRRETMETLAAVITEVLTAAGLTVEVRIEELSPTTARLTVTISGAPLSDAEVDALIEELRRRAAEAVERLGLDRATVGLAVGRVERGVRRLAA
0.13

Now the binder uchl1_143_7461 (protein) ALEPLPVQKTTIEVSESDTPEEIYERIKAAIEAAIAAGKAAEVTIVVPPDPNVRVMVNNVAKRAAREVAQEHADKVKRITINLTDKETGKTEVVAEVVRP
0.242
